System: 201T
assay-overview: relative viability (nuclei count vs DMSO), 5 days (fraction); higher = more cells survive
test-conditions: first compound 0.003162 µM
quantity: relative viability

Example compounds with recorded relative viability:
compound | quantity | observed-result
Cc1cn(-c2cc(NC(=O)c3ccc(C)c(Nc4nccc(-c5cccnc5)n4)c3)cc(C(F)(F)F)c2)cn1 [Nilotinib] + O=C(c1cc(Cc2n[nH]c(=O)c3ccccc23)ccc1F)N1CCN(C(=O)C2CC2)CC1 [Olaparib] (partner 8 µM) | relative viability | 0.876
Cc1cn(-c2cc(NC(=O)c3ccc(C)c(Nc4nccc(-c5cccnc5)n4)c3)cc(C(F)(F)F)c2)cn1 [Nilotinib] + N=C(N)NC(=N)NCCc1ccccc1 [Phenformin] (partner 250 µM) | relative viability | 0.48
Cc1cn(-c2cc(NC(=O)c3ccc(C)c(Nc4nccc(-c5cccnc5)n4)c3)cc(C(F)(F)F)c2)cn1 [Nilotinib] + CC1(C)CCC(c2ccc(Cl)cc2)=C(CN2CCN(c3ccc(C(=O)NS(=O)(=O)c4ccc(N[C@H](CCN5CCOCC5)CSc5ccccc5)c(S(=O)(=O)C(F)(F)F)c4)cc3)CC2)C1 [Navitoclax] (partner 0.5 µM) | relative viability | 1.29

With those in mind, consider the next compound.
Need relative viability of Cc1cn(-c2cc(NC(=O)c3ccc(C)c(Nc4nccc(-c5cccnc5)n4)c3)cc(C(F)(F)F)c2)cn1 [Nilotinib] + CC(C)C[C@H](NC(=O)[C@H](Cc1ccccc1)NC(=O)c1cnccn1)B(O)O [Bortezomib] (partner 0.002 µM) , thanks. 1.09

----------
Tested on: NCI-H2087
assay-overview: relative viability (nuclei count vs DMSO), 5 days (fraction); higher = more cells survive
test-conditions: first compound 0.06325 µM
quantity: relative viability
Numbers only.

Example compounds with recorded relative viability:
compound | observed-result
CCNC(=O)c1noc(-c2cc(C(C)C)c(O)cc2O)c1-c1ccc(CN2CCOCC2)cc1 [Luminespib] + N=C(N)NC(=N)NCCc1ccccc1 [Phenformin] (partner 250 µM) | 0.136
CCNC(=O)c1noc(-c2cc(C(C)C)c(O)cc2O)c1-c1ccc(CN2CCOCC2)cc1 [Luminespib] + CC(=O)Nc1cccc(-n2c(=O)n(C3CC3)c(=O)c3c(Nc4ccc(I)cc4F)n(C)c(=O)c(C)c32)c1 [Trametinib] (partner 0.02 µM) | 0.146
CCNC(=O)c1noc(-c2cc(C(C)C)c(O)cc2O)c1-c1ccc(CN2CCOCC2)cc1 [Luminespib] + O=C(CCCCCCC(=O)Nc1ccccc1)NO [Vorinostat] (partner 1 µM) | 0.111

I'm hoping you can list relative viability for every compound here, please.
1. CCNC(=O)c1noc(-c2cc(C(C)C)c(O)cc2O)c1-c1ccc(CN2CCOCC2)cc1 [Luminespib] + C[C@@H](Oc1cc(-c2cnn(C3CCNCC3)c2)cnc1N)c1c(Cl)ccc(F)c1Cl [Crizotinib] (partner 1 µM)
2. CCNC(=O)c1noc(-c2cc(C(C)C)c(O)cc2O)c1-c1ccc(CN2CCOCC2)cc1 [Luminespib] + C[C@]1(O)C[C@@H](c2nc(-c3ccc4ccc(-c5ccccc5)nc4c3)c3c(N)nccn32)C1 [Linsitinib] (partner 1 µM)
3. CCNC(=O)c1noc(-c2cc(C(C)C)c(O)cc2O)c1-c1ccc(CN2CCOCC2)cc1 [Luminespib] + Cc1nc(NC(=O)N2CCC[C@H]2C(N)=O)sc1-c1ccnc(C(C)(C)C(F)(F)F)c1 [Alpelisib] (partner 2 µM)

0.156
0.263
0.193

----------
Test system: NCI-H647
assay-overview: relative viability (nuclei count vs DMSO), 5 days (fraction); higher = more cells survive
test-conditions: first compound 0.02 µM
quantity: relative viability
Answers are plain numbers.

compound | relative viability
CN1CCN(CCOc2cc(OC3CCOCC3)c3c(Nc4c(Cl)ccc5c4OCO5)ncnc3c2)CC1 [Saracatinib] + C[C@]1(O)C[C@@H](c2nc(-c3ccc4ccc(-c5ccccc5)nc4c3)c3c(N)nccn32)C1 [Linsitinib] (partner 1 µM) | 1.05

With those in mind, consider the next compound.
Need relative viability of CCNC(=O)c1noc(-c2cc(C(C)C)c(O)cc2O)c1-c1ccc(CN2CCOCC2)cc1 [Luminespib] + CC(C)C[C@H](NC(=O)[C@H](Cc1ccccc1)NC(=O)c1cnccn1)B(O)O [Bortezomib] (partner 0.002 µM) , thanks. 0.29

----------
Tested on: NCI-H3122
assay-overview: relative viability (nuclei count vs DMSO), 5 days (fraction); higher = more cells survive
test-conditions: first compound 0.253 µM
quantity: relative viability
Numbers only.

compound | observed-result
Nc1cccc2c1CN(C1CCC(=O)NC1=O)C2=O (stereo unspecified) [Lenalidomide] + COc1cccc2cc(-c3nc([C@H]4CC[C@H](C(=O)O)CC4)n4ncnc(N)c34)[nH]c12 [OSI-027] (partner 0.5 µM) | 0.97
Nc1cccc2c1CN(C1CCC(=O)NC1=O)C2=O (stereo unspecified) [Lenalidomide] + O=C(c1cc(Cc2n[nH]c(=O)c3ccccc23)ccc1F)N1CCN(C(=O)C2CC2)CC1 [Olaparib] (partner 8 µM) | 0.596
Nc1cccc2c1CN(C1CCC(=O)NC1=O)C2=O (stereo unspecified) [Lenalidomide] + CS(=O)(=O)N1CCN(Cc2cc3nc(-c4cccc5[nH]ncc45)nc(N4CCOCC4)c3s2)CC1 [Pictilisib] (partner 1 µM) | 0.653
Nc1cccc2c1CN(C1CCC(=O)NC1=O)C2=O (stereo unspecified) [Lenalidomide] + NC(=O)Nc1cc(-c2cccc(F)c2)sc1C(=O)N[C@H]1CCCNC1 [AZD7762] (partner 0.2 µM) | 0.938

I'm hoping you can list relative viability for every compound here, please.
1. Nc1cccc2c1CN(C1CCC(=O)NC1=O)C2=O (stereo unspecified) [Lenalidomide] + C[C@@H](Oc1cc(-c2cnn(C3CCNCC3)c2)cnc1N)c1c(Cl)ccc(F)c1Cl [Crizotinib] (partner 1 µM)
2. Nc1cccc2c1CN(C1CCC(=O)NC1=O)C2=O (stereo unspecified) [Lenalidomide] + CCNC(=O)c1noc(-c2cc(C(C)C)c(O)cc2O)c1-c1ccc(CN2CCOCC2)cc1 [Luminespib] (partner 0.01 µM)

1: 0.261; 2: 0.0887

----------
System: NCI-H1734
assay-overview: relative viability (nuclei count vs DMSO), 5 days (fraction); higher = more cells survive
test-conditions: first compound 0.006325 µM
quantity: relative viability
Numbers only.

molecule | relative viability
CCNC(=O)c1noc(-c2cc(C(C)C)c(O)cc2O)c1-c1ccc(CN2CCOCC2)cc1 [Luminespib] + Cc1nc(Nc2ncc(C(=O)Nc3c(C)cccc3Cl)s2)cc(N2CCN(CCO)CC2)n1 [Dasatinib] (partner 0.075 µM) | 0.419

With those in mind, consider the next molecule.
Need relative viability of CCNC(=O)c1noc(-c2cc(C(C)C)c(O)cc2O)c1-c1ccc(CN2CCOCC2)cc1 [Luminespib] + CC(C)C[C@H](NC(=O)[C@H](Cc1ccccc1)NC(=O)c1cnccn1)B(O)O [Bortezomib] (partner 0.002 µM) , thanks. 0.823

----------
Would you kindly list relative viability for each of these compounds?
Test system: NCI-H1755
assay-overview: relative viability (nuclei count vs DMSO), 5 days (fraction); higher = more cells survive
test-conditions: first compound 8 µM
One number for each entry.

Example compounds with recorded relative viability:
compound | relative viability
Nc1cccc2c1CN(C1CCC(=O)NC1=O)C2=O (centres undefined) [Lenalidomide] + CC(C)C[C@H](NC(=O)[C@H](Cc1ccccc1)NC(=O)c1cnccn1)B(O)O [Bortezomib] (partner 0.002 µM) | 0.913
Nc1cccc2c1CN(C1CCC(=O)NC1=O)C2=O (centres undefined) [Lenalidomide] + COc1cccc2cc(-c3nc([C@H]4CC[C@H](C(=O)O)CC4)n4ncnc(N)c34)[nH]c12 [OSI-027] (partner 0.5 µM) | 0.67
Nc1cccc2c1CN(C1CCC(=O)NC1=O)C2=O (centres undefined) [Lenalidomide] + CCNC(=O)c1noc(-c2cc(C(C)C)c(O)cc2O)c1-c1ccc(CN2CCOCC2)cc1 [Luminespib] (partner 0.01 µM) | 0.655

With those in mind, consider the next compound.
Need relative viability of Nc1cccc2c1CN(C1CCC(=O)NC1=O)C2=O (centres undefined) [Lenalidomide] + C[C@@H](Oc1cc(-c2cnn(C3CCNCC3)c2)cnc1N)c1c(Cl)ccc(F)c1Cl [Crizotinib] (partner 1 µM) , thanks. 0.821

----------
Tested on: NCI-H1355
assay-overview: relative viability (nuclei count vs DMSO), 5 days (fraction); higher = more cells survive
test-conditions: first compound 0.006325 µM
So basically, if relative viability comes in under 0.7 it's Fulfilled, and if it's 0.7 or more it's Not fulfilled.

The examples below pair each entry with its known result.
compound | label
CCNC(=O)c1noc(-c2cc(C(C)C)c(O)cc2O)c1-c1ccc(CN2CCOCC2)cc1 [Luminespib] + CC(C)C[C@H](NC(=O)[C@H](Cc1ccccc1)NC(=O)c1cnccn1)B(O)O [Bortezomib] (partner 0.002 µM) | Not fulfilled
CCNC(=O)c1noc(-c2cc(C(C)C)c(O)cc2O)c1-c1ccc(CN2CCOCC2)cc1 [Luminespib] + Nc1nc2[nH]cc(CCc3ccc(C(=O)N[C@@H](CCC(=O)O)C(=O)O)cc3)c2c(=O)[nH]1 [Pemetrexed] (partner 0.2 µM) | Not fulfilled
CCNC(=O)c1noc(-c2cc(C(C)C)c(O)cc2O)c1-c1ccc(CN2CCOCC2)cc1 [Luminespib] + Cc1cc(Nc2cc(N3CCN(C)CC3)nc(Sc3ccc(NC(=O)C4CC4)cc3)n2)n[nH]1 [Tozasertib] (partner 0.1 µM) | Fulfilled

Is the reported relative viability for CCNC(=O)c1noc(-c2cc(C(C)C)c(O)cc2O)c1-c1ccc(CN2CCOCC2)cc1 [Luminespib] + COc1cc2c(Oc3ccc(NC(=O)C4(C(=O)Nc5ccc(F)cc5)CC4)cc3F)ccnc2cc1OCCCN1CCOCC1 [Foretinib] (partner 0.25 µM) strictly below 0.7? Not fulfilled
